- target-under-test: human full-length MKNK1 (Homo sapiens (Human), UniProt Q9BUB5, T344D)
- Sequence (Q9BUB5 other isoform, or with tags, fused parts or gaps T344D): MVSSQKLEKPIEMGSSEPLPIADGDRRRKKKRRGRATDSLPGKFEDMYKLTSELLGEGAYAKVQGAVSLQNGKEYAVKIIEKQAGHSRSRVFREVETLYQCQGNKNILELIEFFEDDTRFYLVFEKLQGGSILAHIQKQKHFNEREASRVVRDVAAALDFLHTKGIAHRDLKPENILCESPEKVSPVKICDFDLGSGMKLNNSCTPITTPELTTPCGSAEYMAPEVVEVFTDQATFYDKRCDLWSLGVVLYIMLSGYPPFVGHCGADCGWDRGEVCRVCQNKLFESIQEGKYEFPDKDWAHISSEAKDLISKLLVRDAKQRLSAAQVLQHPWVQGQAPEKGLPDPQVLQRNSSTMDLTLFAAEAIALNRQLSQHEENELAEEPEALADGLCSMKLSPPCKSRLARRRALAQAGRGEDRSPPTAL
- measurement-notes: MKNK1 kinase high ATP assay (TR-FRET)
- Format: biochemical
- conditions-used: high ATP (2 mM), 15 min preincubation with enzyme; read-out: MKNK1 IC50
quantity-kind: log10 of IC50 (log10 of the value in nM)
Values below are the log10 of the recorded IC50, with nM as the unit.

The measured log10 of IC50 associated with COc1cn2nccc2cc1Nc1ncnc2sc3c(c12)CC[C@H](C(=O)Nc1ccc(F)cc1)C3 reads 0.90

The measured log10 of IC50 associated with COc1cn2nccc2cc1Nc1ncnc2sc3c(c12)CC[C@H](C(=O)N1C[C@H]2C[C@@H]1CO2)C3 reads 0.00

The measured log10 of IC50 associated with COc1cn2nccc2cc1Nc1ncnc2sc3c(c12)CC[C@H](C(=O)N1CCOC[C@H]1C)C3 reads 0.00

The measured log10 of IC50 associated with C[C@H]1COCCN1C(=O)[C@H]1CCc2c(sc3ncnc(Nc4ccn5nccc5c4)c23)C1 reads 1.81

The measured log10 of IC50 associated with COc1cn2nccc2cc1Nc1ncnc2sc3c(c12)CC[C@H](C(=O)N(C)C)C3 reads 0.60

The measured log10 of IC50 associated with O=C(O)[C@H]1CCc2c(sc3ncnc(Nc4ccn5nccc5c4)c23)C1 reads 2.85

The measured log10 of IC50 associated with COCCN(C)C(=O)[C@H]1CCc2c(sc3ncnc(Nc4ccn5nccc5c4)c23)C1 reads 1.62

The measured log10 of IC50 associated with CN(C)C(=O)C1CCc2c(sc3ncnc(Nc4ccn5nccc5c4)c23)C1 (racemic) reads 1.81

---

- target-under-test: human full-length MKNK1 (Homo sapiens (Human), UniProt Q9BUB5, T344D)
- measurement-notes: MKNK1 kinase high ATP assay (TR-FRET)
- Assay type: biochemical
- conditions-used: high ATP (2 mM), 15 min preincubation with enzyme; read-out: MKNK1 IC50
Record form. Attribute: IC50. Fill in for each entry.
Just the number in nM, nothing appended.

The measured IC50 associated with COc1cn2nccc2cc1Nc1ncnc2sc3c(c12)CC[C@H](C(=O)N(C)CCCN(C)C)C3 reads 1

The measured IC50 associated with COc1cn2nccc2cc1Nc1ncnc2sc3c(c12)CC[C@H](C(=O)NCCO)C3 reads 3

The measured IC50 associated with CN(C)CCN(C)C(=O)[C@H]1CCc2c(sc3ncnc(Nc4ccn5nccc5c4)c23)C1 reads 21

The measured IC50 associated with COc1cn2nccc2cc1Nc1ncnc2sc3c(c12)CC[C@H](C(=O)N1C[C@@H](C)O[C@@H](C)C1)C3 reads 2

---

- target-under-test: human full-length MKNK1 (Homo sapiens (Human), UniProt Q9BUB5, T344D)
- measurement-notes: MKNK1 kinase high ATP assay (TR-FRET)
- Type: biochemical
quantity-kind: pIC50
As a rule, pIC50 stands for the negative log10 of the concentration, concentration in M.

The measured pIC50 associated with O=C1CCN(C(=O)[C@H]2CCc3c(sc4ncnc(Nc5ccn6nccc6c5)c34)C2)CC1 reads 7.02

---

- target-under-test: human full-length MKNK1 (Homo sapiens (Human), UniProt Q9BUB5, T344D)
- measurement-notes: MKNK1 kinase high ATP assay (TR-FRET)
- Type: biochemical
- conditions-used: high ATP (2 mM), 15 min preincubation with enzyme; read-out: MKNK1 IC50
quantity-kind: IC50 (nM)
Just the number in nM, nothing appended.

The measured IC50 associated with COc1cn2nccc2cc1Nc1ncnc2sc3c(c12)CC[C@H](C(=O)Nc1cccc(F)c1)C3 reads 7

The measured IC50 associated with CN(C)C(=O)[C@H]1CCc2c(sc3ncnc(Nc4ccn5nccc5c4)c23)C1 reads 33

The measured IC50 associated with CN1CCN(C(=O)[C@H]2CCc3c(sc4ncnc(Nc5cc6ccnn6cc5Cl)c34)C2)CC1 reads 5

The measured IC50 associated with CN(C)[C@@H]1CCN(C(=O)[C@H]2CCc3c(sc4ncnc(Nc5cc6ccnn6cc5Cl)c34)C2)C1 reads 2

The measured IC50 associated with CN1C[C@@H]2C[C@H]1CN2C(=O)[C@H]1CCc2c(sc3ncnc(Nc4cc5ccnn5cc4Cl)c23)C1 reads 14

The measured IC50 associated with CN(C)C1CCN(C(=O)[C@H]2CCc3c(sc4ncnc(Nc5cc6ccnn6cc5Cl)c34)C2)CC1 reads 13

The measured IC50 associated with COc1cn2nccc2cc1Nc1ncnc2sc3c(c12)CC[C@H](C(=O)Nc1ccc2[nH]ccc2c1)C3 reads 3
